Data credit: patent US8658604B2

Hi there, I'd appreciate the recorded IC50 for every entry that follows.
# tested system: CathepsinG, from human neutrophils (Homo sapiens, UniProt P08311)
# Sequence (P08311 21-244): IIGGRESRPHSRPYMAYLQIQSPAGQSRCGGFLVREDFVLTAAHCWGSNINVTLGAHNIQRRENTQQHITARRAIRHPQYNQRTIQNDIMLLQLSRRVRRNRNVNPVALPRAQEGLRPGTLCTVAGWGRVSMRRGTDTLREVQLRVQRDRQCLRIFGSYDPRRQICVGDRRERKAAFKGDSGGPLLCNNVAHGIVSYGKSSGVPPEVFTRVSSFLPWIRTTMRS
# assay: Enzymatic assay, cathepsin G
# condition context: Cathepsin G IC50
Where a SMILES comes first, the peptide text is derived from it.
# unit: nM | format: bare number

Problem: Please look up its IC50: CC[C@H](C)[C@@H]1NC(=O)[C@@H]2CCCN2C(=O)[C@@H]2CCCN2C(=O)[C@H](CC(C)C)NC(=O)[C@H](CO)NC(=O)[C@H](CCCCN)NC(=O)[C@H]([C@@H](C)O)NC(=O)[C@@H]2CSSC[C@H](NC1=O)C(=O)N[C@@H](CCCNC(=N)N)C(=O)N1CCC[C@@H]1C(=O)N1CCC[C@H]1C(=O)N[C@@H](Cc1ccccc1)C(=O)N2 [Ex. 184] (HELM PEPTIDE1{F.C.T.K.S.L.P.P.I.C.R.[dP].P}$PEPTIDE1,PEPTIDE1,2:R3-10:R3|PEPTIDE1,PEPTIDE1,1:R1-13:R2$$$V2.0)
Solution: 221

Problem: Please look up its IC50: CCCC[C@@H]1NC(=O)[C@@H]2CCCN2C(=O)[C@H]2CCCN2C(=O)[C@H](CCC(N)=O)NC(=O)[C@@H]2CSSC[C@H](NC1=O)C(=O)N[C@@H]([C@@H](C)O)C(=O)N[C@@H](C)C(=O)N[C@@H](CO)C(=O)N[C@@H]([C@@H](C)CC)C(=O)N1CCC[C@H]1C(=O)N1CCC[C@H]1C(=O)N[C@@H](CCC(N)=O)C(=O)N2 [Ex. 131] (HELM PEPTIDE1{[Nle].C.T.A.S.I.P.P.Q.C.Q.[dP].P}$PEPTIDE1,PEPTIDE1,2:R3-10:R3|PEPTIDE1,PEPTIDE1,1:R1-13:R2$$$V2.0)
Solution: 45

Problem: Please look up its IC50: CC[C@H](C)[C@@H]1NC(=O)[C@@H]2CCCN2C(=O)[C@H]2CCCN2C(=O)[C@H](CCCNC(=N)N)NC(=O)[C@@H]2CSSC[C@H](NC1=O)C(=O)N[C@@H]([C@@H](C)O)C(=O)N[C@@H](CCCCN)C(=O)N[C@@H](CO)C(=O)N[C@@H](CC(C)C)C(=O)N1CCC[C@H]1C(=O)N1CCC[C@H]1C(=O)N[C@@H](CCCNC(=N)N)C(=O)N2 [Ex. 185] (HELM PEPTIDE1{I.C.T.K.S.L.P.P.R.C.R.[dP].P}$PEPTIDE1,PEPTIDE1,2:R3-10:R3|PEPTIDE1,PEPTIDE1,1:R1-13:R2$$$V2.0)
Solution: 514

Problem: Please look up its IC50: CC[C@H](C)[C@@H]1NC(=O)[C@@H]2CCCN2C(=O)[C@H]2CCCN2C(=O)[C@H](CCCNC(=N)N)NC(=O)[C@@H]2CSSC[C@H](NC1=O)C(=O)N[C@@H]([C@@H](C)O)C(=O)N[C@@H](CCCCN)C(=O)N[C@@H](CO)C(=O)N[C@@H](CC(=O)O)C(=O)N1CCC[C@H]1C(=O)N1CCC[C@H]1C(=O)N[C@@H](CC1CCCCC1)C(=O)N2 [Ex. 20] (HELM PEPTIDE1{I.C.T.K.S.D.P.P.[Cha].C.R.[dP].P}$PEPTIDE1,PEPTIDE1,2:R3-10:R3|PEPTIDE1,PEPTIDE1,1:R1-13:R2$$$V2.0)
Solution: 48

* * *

Hi there, I'd appreciate the recorded Chymotrypsin at 100 μM % for every entry that follows.
# tested system: Chymotrypsin, from human pancreas (Homo sapiens)
# Sequence (P17538 19-263): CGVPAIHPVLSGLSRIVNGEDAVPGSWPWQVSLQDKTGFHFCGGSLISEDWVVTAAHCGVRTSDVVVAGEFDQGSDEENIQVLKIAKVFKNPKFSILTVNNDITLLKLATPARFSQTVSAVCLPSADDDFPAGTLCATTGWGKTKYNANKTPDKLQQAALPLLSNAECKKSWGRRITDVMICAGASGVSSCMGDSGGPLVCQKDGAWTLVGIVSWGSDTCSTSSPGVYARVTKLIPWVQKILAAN
# assay: Enzymatic assay, chymotrypsin
# condition context: at 100 μM
Where a SMILES comes first, the peptide text is derived from it.

Problem: Form field - read-out: Chymotrypsin at 100 μM %; system: Chymotrypsin, from human pancreas (Homo sapiens); submitted item: CC[C@H](C)[C@@H]1NC(=O)[C@@H]2CCCN2C(=O)[C@@H]2CCCN2C(=O)[C@H](CC(=O)O)NC(=O)[C@H](CO)NC(=O)[C@H](CCCCN)NC(=O)[C@H]([C@@H](C)O)NC(=O)[C@@H]2CSSC[C@H](NC1=O)C(=O)N[C@@H](CO)C(=O)N[C@H](C)C(=O)N[C@@H](CC(=O)O)C(=O)N[C@@H](Cc1ccccc1)C(=O)N2 [Ex. 68] (HELM PEPTIDE1{F.C.T.K.S.D.P.P.I.C.S.[dA].D}$PEPTIDE1,PEPTIDE1,2:R3-10:R3|PEPTIDE1,PEPTIDE1,1:R1-13:R2$$$V2.0)
Solution: 4.3%

Problem: Form field - read-out: Chymotrypsin at 100 μM %; system: Chymotrypsin, from human pancreas (Homo sapiens); submitted item: CC[C@H](C)[C@@H]1NC(=O)[C@@H]2CCCN2C(=O)[C@@H]2CCCN2C(=O)[C@H](CC(=O)O)NC(=O)[C@H](CO)NC(=O)[C@H](CCCCN)NC(=O)[C@H]([C@@H](C)O)NC(=O)[C@@H]2CSSC[C@H](NC1=O)C(=O)N[C@@H](CC(N)=O)C(=O)N1CCC[C@@H]1C(=O)N1CCC[C@H]1C(=O)N[C@@H](Cc1ccccc1)C(=O)N2 [Ex. 3] (HELM PEPTIDE1{F.C.T.K.S.D.P.P.I.C.N.[dP].P}$PEPTIDE1,PEPTIDE1,2:R3-10:R3|PEPTIDE1,PEPTIDE1,1:R1-13:R2$$$V2.0)
Solution: 0%

* * *

# tested system: CathepsinG, from human neutrophils (Homo sapiens)
# assay: Enzymatic assay, cathepsin G
# condition context: Cathepsin G IC50
Where a SMILES comes first, the peptide text is derived from it.
value kind: IC50 (nM)
# unit: nM | format: bare number

Problem: Form field - read-out: IC50; system: CathepsinG, from human neutrophils (Homo sapiens); submitted item: CCCC[C@@H]1NC(=O)[C@@H]2CCCN2C(=O)[C@H]2CCCN2C(=O)[C@H](CO)NC(=O)[C@@H]2CSSC[C@H](NC1=O)C(=O)N[C@@H]([C@@H](C)O)C(=O)N[C@@H](CCCCN)C(=O)N[C@@H](CO)C(=O)N[C@@H](CC(=O)O)C(=O)N1CCC[C@H]1C(=O)N1CCC[C@H]1C(=O)N[C@@H]([C@@H](C)CC)C(=O)N2 [Ex. 10] (HELM PEPTIDE1{[Nle].C.T.K.S.D.P.P.I.C.S.[dP].P}$PEPTIDE1,PEPTIDE1,2:R3-10:R3|PEPTIDE1,PEPTIDE1,1:R1-13:R2$$$V2.0)
Solution: 75

* * *

# tested system: Coagulation Factor Xa, from uman plasma (Homo sapiens, UniProt P00742)
# Sequence (P00742 235-488 limits assumed): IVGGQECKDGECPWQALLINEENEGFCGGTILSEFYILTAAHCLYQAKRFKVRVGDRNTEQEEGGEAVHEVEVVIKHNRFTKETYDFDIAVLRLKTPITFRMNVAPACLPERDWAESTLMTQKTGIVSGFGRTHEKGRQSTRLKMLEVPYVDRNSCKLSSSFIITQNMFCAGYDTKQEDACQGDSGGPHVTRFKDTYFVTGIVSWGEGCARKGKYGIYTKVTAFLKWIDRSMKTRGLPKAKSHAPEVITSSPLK
# Sequence (P00742 41-179 limits assumed): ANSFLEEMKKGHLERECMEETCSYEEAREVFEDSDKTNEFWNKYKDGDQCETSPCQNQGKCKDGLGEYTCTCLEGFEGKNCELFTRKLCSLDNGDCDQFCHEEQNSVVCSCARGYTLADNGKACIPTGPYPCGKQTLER
# assay: Enzymatic assay, coagulation factor Xa
Where a SMILES comes first, the peptide text is derived from it.
Hi there, I'd appreciate the recorded FXa at 100 μM % for every entry that follows.
# unit: % | format: bare number

Problem: Please look up its FXa at 100 μM %: CC[C@H](C)[C@@H]1NC(=O)[C@@H]2CCCN2C(=O)[C@@H]2CCCN2C(=O)[C@H](CC(=O)O)NC(=O)[C@H](CO)NC(=O)[C@H](CCCCN)NC(=O)[C@H]([C@@H](C)O)NC(=O)[C@@H]2CSSC[C@H](NC1=O)C(=O)N[C@@H]([C@@H](C)O)C(=O)N1CCC[C@@H]1C(=O)N1CCC[C@H]1C(=O)N[C@@H](CCc1ccccc1)C(=O)N2 [Ex. 28] (HELM PEPTIDE1{[O=C([C@H](CCc1ccccc1)N[*:1])[*:2]].C.T.K.S.D.P.P.I.C.T.[dP].P}$PEPTIDE1,PEPTIDE1,2:R3-10:R3|PEPTIDE1,PEPTIDE1,1:R1-13:R2$$$V2.0)
Solution: 6

Problem: Please look up its FXa at 100 μM %: CC[C@H](C)[C@@H]1NC(=O)[C@@H]2CCCN2C(=O)[C@@H]2CCCN2C(=O)[C@H](CC(=O)O)NC(=O)[C@H](CO)NC(=O)[C@H](CCCCN)NC(=O)[C@H]([C@@H](C)O)NC(=O)[C@@H]2CSSC[C@H](NC1=O)C(=O)N[C@@H](CC(=O)O)C(=O)N1CCC[C@@H]1C(=O)N1CCC[C@H]1C(=O)N[C@@H](C1CCCCC1)C(=O)N2 [Ex. 39] (HELM PEPTIDE1{[O=C([C@@H](N[*:1])C1CCCCC1)[*:2]].C.T.K.S.D.P.P.I.C.D.[dP].P}$PEPTIDE1,PEPTIDE1,2:R3-10:R3|PEPTIDE1,PEPTIDE1,1:R1-13:R2$$$V2.0)
Solution: 0

Problem: Please look up its FXa at 100 μM %: CCCC[C@@H]1NC(=O)[C@@H]2CCCN2C(=O)[C@@H]2CCCN2C(=O)[C@H](CC(=O)O)NC(=O)[C@H](CO)NC(=O)[C@H](CCCCN)NC(=O)[C@H]([C@@H](C)O)NC(=O)[C@@H]2CSSC[C@H](NC1=O)C(=O)N[C@@H](CCCNC(=N)N)C(=O)N1CCC[C@@H]1C(=O)N1CCC[C@H]1C(=O)N[C@@H]([C@@H](C)CC)C(=O)N2 [Ex. 57] (HELM PEPTIDE1{I.C.T.K.S.D.P.P.[Nle].C.R.[dP].P}$PEPTIDE1,PEPTIDE1,2:R3-10:R3|PEPTIDE1,PEPTIDE1,1:R1-13:R2$$$V2.0)
Solution: 32

Problem: Please look up its FXa at 100 μM %: CC[C@H](C)[C@@H]1NC(=O)[C@H](C)NC(=O)[C@@H]2CCCN2C(=O)[C@H](CC(=O)O)NC(=O)[C@H](CO)NC(=O)[C@H](CCCCN)NC(=O)[C@H]([C@@H](C)O)NC(=O)[C@@H]2CSSC[C@H](NC1=O)C(=O)N[C@@H](CCCNC(=N)N)C(=O)N1CCC[C@@H]1C(=O)N1CCC[C@H]1C(=O)N[C@@H]([C@@H](C)CC)C(=O)N2 [Ex. 14] (HELM PEPTIDE1{I.C.T.K.S.D.P.A.I.C.R.[dP].P}$PEPTIDE1,PEPTIDE1,2:R3-10:R3|PEPTIDE1,PEPTIDE1,1:R1-13:R2$$$V2.0)
Solution: 6
